# solubility kinetic listing for each entry below
# conditionContext: buffer; pH 7.4; 200.0 µM
Lab book: enter the figure in µg/mL, no units written.

[
  {
    "compoundStructure": "COc1ccc(C(=O)CCC(=O)NCCc2ccccc2F)cc1",
    "unitsLabel": "µg/mL",
    "solubility kinetic": 16.9
  }
]

Switching to the query record.
QUERY: Quote solubility kinetic reported for `Cc1ccc(C(=O)N2CCN(c3ncnc4c(C)csc34)CC2)cc1` please.
RESULT: 4.3

====

Reported solubility kinetic values for a set of compounds
# conditionContext: buffer; pH 7.4; 200.0 µM

[
  {
    "compound": "c1ccc2c(CN3CCOCC3)c[nH]c2c1",
    "observedProperty": "solubility kinetic",
    "result": "> 32.4 µg/mL"
  },
  {
    "compound": "CN(C)CCNC(=O)c1ccc2c(c1)NC(=O)c1ccccc1S2",
    "observedProperty": "solubility kinetic",
    "result": "> 51.2 µg/mL"
  },
  {
    "compound": "COc1ccc(C2Nc3ccccc3C(=O)N2NC(C)=O)cc1OC (stereo unspecified)",
    "observedProperty": "solubility kinetic",
    "result": "> 51.2 µg/mL"
  }
]

QUERY: State its solubility kinetic for this compound: `O=C(NNC(=S)NC(=O)c1ccc(F)cc1)c1cccnc1`
RESULT: > 47.7 µg/mL

QUERY: Kindly indicate its recorded solubility kinetic. Item: `COc1ccccc1OCCn1cc(C(=O)C(C)C)c2ccccc21`
RESULT: < 0.7 µg/mL

QUERY: State its solubility kinetic: `Cc1ccc(Cl)cc1NC(=O)NCCN1CCCCC1`
RESULT: > 44.4 µg/mL
